Ref: patent US20240016777A1

The entries below come with measured remaining activity at 17 µM values attached.
Target: SARS-CoV-2 M^pro (Severe acute respiratory syndrome coronavirus 2 (2019-nCoV) (SARS-CoV-2))
Assay: biochemical
Settings: read-out: Activity (% enzyme activity by fluorescence relative to initial enzyme activity), compound at 17 μM, duplicates, 20 min pre-incubation
readout-label: remaining activity at 17 µM

C=C(C)C(CC=C(C)C)Cc1c(O)cc(O)c2c1O[C@H](c1ccc(O)cc1O)[C@@H](O)C2=O (stereo partly shown) = > 80%
CC(C)=CCc1cc([C@@H]2CC(=O)c3c(O)cc(O)cc3O2)cc(CC=C(C)C)c1O = > 80%
COc1ccc(-c2oc3c(CC=C(C)C)c(O)cc(O)c3c(=O)c2O[C@@H]2O[C@@H](C)[C@H](O[C@@H]3O[C@H](CO)[C@@H](O)[C@H](O)[C@H]3O)[C@@H](O)[C@H]2O)cc1 [Baohuoside VII] = 10 to 80%
C=C(C)C(O)Cc1c(O)c(CC=C(C)C)c2occ(-c3ccc(O)cc3)c(=O)c2c1O (stereo not shown) = > 80%
CC(C)=CC1Oc2cc(O)ccc2-c2oc3cc(O)cc(O)c3c(=O)c21 (stereo not shown) = > 80%
CC(C)=CCc1cc(-c2oc3cc(O)cc(O)c3c(=O)c2O)cc(O)c1O = > 80%
C=C(C)[C@H](CC=C(C)C)Cc1c(O)cc(O)c2c1OC(c1cc3c(cc1O)O[C@@H](c1ccc(O)cc1)[C@@H]3c1cc(O)cc(O)c1)CC2=O (stereo partly shown) = 10 to 80%

###

Target: UniProtKB P0DTD1
Assay: biochemical
Conditions: read-out: Activity (% enzyme activity by fluorescence relative to initial enzyme activity), compound at 17 μM, duplicates, 20 min pre-incubation
readout-label: remaining activity at 17 µM

COc1c(CC=C(C)C)c(O)cc2c1CC(c1ccc(O)cc1O)CO2 (stereo not shown) [Glyasperin C] = > 80%
CC(C)=CCc1cc(-c2coc3cc(O)cc(O)c3c2=O)cc(CC=C(C)C)c1O [3′,5′-Diprenylgenistein] = > 80%
COc1c(CC=C(C)C)c(O)cc2c1C[C@H](c1ccc(O)c(CC=C(C)C)c1O)CO2 [Licoricidin] = > 80%
CC(C)=CCc1c(O)ccc2c(=O)cc(-c3ccc(O)c(O)c3)oc12 [Corylifol C] = > 80%
CC(C)=CCc1c(O)cc(O)c2c1O[C@H](c1ccc(O)cc1O)CC2=O [Leachianone G] = > 80%
COc1ccc(-c2oc3c(CC=C(C)C)c(O[C@@H]4O[C@H](CO)[C@@H](O)[C@H](O)[C@H]4O)cc(O)c3c(=O)c2O[C@@H]2O[C@@H](C)[C@H](OC(C)=O)[C@@H](O)[C@H]2O[C@@H]2O[C@H](COC(C)=O)[C@@H](O)[C@H](OC(C)=O)[C@H]2O)cc1 [Epimedin K] = > 80%
COc1ccc(-c2oc3c(CC=C(C)C)c(O[C@@H]4O[C@H](CO)[C@@H](O)[C@H](O)[C@H]4O)cc(O)c3c(=O)c2O[C@@H]2O[C@@H](C)[C@H](O[C@@H]3OC[C@@H](O)[C@H](O)[C@H]3O)[C@@H](O)[C@H]2O)cc1 [Epimedin B1] = 10 to 80%
COc1ccc(-c2oc3c(CC=C(C)C)c(O[C@@H]4O[C@H](CO)[C@@H](O)[C@H](O)[C@H]4O)cc(O)c3c(=O)c2O[C@@H]2O[C@@H](C)[C@H](O)[C@@H](O)[C@H]2O[C@@H]2O[C@@H](C)[C@H](O)[C@@H](O)[C@H]2O)cc1 [Epimedin C] = 10 to 80%
COc1c(O)cc2oc(-c3ccc(O)c(O)c3)cc(=O)c2c1O [6-methoxyluteolin] = 10 to 80%
CC(C)=CCc1c(O)cc(O)c2c(=O)c(-c3ccc(O)cc3O)coc12 [2,3-dehydrokievitone] = 10 to 80%
COc1cc(O)c(-c2coc3cc(O)ccc3c2=O)c(OC)c1CC=C(C)C [Licoricone] = > 80%
CC(C)=CCc1c2c(c(O)c3c(=O)c(-c4ccc(O)c(O)c4)coc13)C=CC(C)(C)O2 [Auriculasin] = > 80%
COc1ccc(-c2oc3c(CC=C(C)C)c(O[C@@H]4O[C@H](CO)[C@@H](O)[C@H](O)[C@H]4O)cc(O)c3c(=O)c2O[C@@H]2O[C@@H](C)[C@H](OC(C)=O)[C@@H](O)[C@H]2O[C@@H]2O[C@H](CO)[C@@H](O)[C@H](OC(C)=O)[C@H]2O)cc1 [Caohuoside E] = > 80%
CC(C)=CCCC1(C)CCc2c(cc(O)c3c2OC(c2ccc(O)cc2O)CC3=O)O1 (stereo not shown) [Sanggenol L] = > 80%
COc1ccc(-c2oc3c(CC=C(C)C)c(O[C@@H]4O[C@H](CO)[C@@H](O)[C@H](O)[C@H]4O)cc(O)c3c(=O)c2O[C@@H]2O[C@@H](C)[C@H](O)[C@@H](O)[C@H]2O[C@@H]2OC[C@@H](O)[C@H](O)[C@H]2O)cc1 [Epimedin B] = 10 to 80%
COc1ccc(-c2coc3c(CC=C(C)C)c(O)cc(O)c3c2=O)cc1 [Gancaonin M] = > 80%
CC(C)=CC[C@]12Oc3cc(O)c([C@H]4C=C(C)C[C@H](c5ccc(O)cc5O)[C@H]4C(=O)c4cc(O)cc(O)c4)c(O)c3C(=O)[C@@]1(O)Oc1cc(O)ccc12 [Sanggenone C] = < 10%
COc1cc2c(c(OC)c1CC=C(C)C)C[C@H](c1ccc(O)c(CC=C(C)C)c1O)CO2 [Licorisoflavan A] = 10 to 80%
C=C(C)[C@H](CC=C(C)C)Cc1c(O)cc(O)c2c1O[C@H](c1ccccc1O)CC2=O [Kushenol A] = > 80%
CC(C)=CCc1cc(-c2coc3cc(O)c(CC=C(C)C)c(O)c3c2=O)cc(O)c1O [Imbricataflavone A] = > 80%
CC(C)=CCc1c([C@H]2CCc3ccc(O)cc3O2)ccc(O)c1O [Kazinol U] = > 80%
COc1c(O)cc2oc(-c3cc(CC=C(C)C)c(O)c(CC=C(C)C)c3)c(OC)c(=O)c2c1O = > 80%
COc1c(-c2cc(O)c(O)c(CC=C(C)C)c2)oc2cc(O)cc(O)c2c1=O [Uralenol-3-methylether] = > 80%
CC(C)=CCC/C(C)=C/Cc1c(O)ccc(C2CC(=O)c3c(O)cc(O)cc3O2)c1O (stereo not shown) [sanggenol A] = 10 to 80%
COc1ccc(-c2oc3c(CC=C(C)C)c(O[C@@H]4O[C@H](CO)[C@@H](O)[C@H](O)[C@H]4O)cc(O)c3c(=O)c2O)cc1 [Icariside I] = > 80%

###

Target: SARS-CoV-2 M^pro (Severe acute respiratory syndrome coronavirus 2 (2019-nCoV) (SARS-CoV-2), UniProt P0DTD1)
Assay: biochemical
Settings: compound at 17 μM, duplicates, 20 min pre-incubation; read-out: Activity (% enzyme activity by fluorescence relative to initial enzyme activity)
Catalogue of remaining activity at 17 µM readings, one per entry.
readout-label: remaining activity at 17 µM

CC(C)=CCc1c2c(c3occ(-c4ccc(O)cc4)c(=O)c3c1O)C=CC(C)(C)O2 = > 80%
O=c1c(O)c(-c2ccc(O)cc2)oc2cc(O)cc(O)c12 = > 80%
COc1cc(O)c2c(c1CC=C(C)C)O[C@H](c1cc(CC=C(C)C)c(O)cc1O)CC2=O = < 10%
O=c1c(-c2ccc(O)cc2)coc2cc(O)cc(O)c12 = > 80%
CC(C)=CCc1c(O)ccc(C(=O)[C@@H]2C(c3c(O)cc(O)c4c(=O)c(CC=C(C)C)c(-c5ccc(O)cc5O)oc34)C=C(C)CC2c2ccc(O)cc2O)c1O (stereo partly drawn) = 10 to 80%
C=C(C)C(CC=C(C)C)Cc1c(O)cc(O)c2c(=O)c(O)c(-c3ccc(O)cc3)oc12 (stereo not drawn) = 10 to 80%
CC(C)=CCC/C(C)=C/Cc1c(-c2ccc(O)cc2O)oc2cc(O)cc(O)c2c1=O [5,7,2′,4′-Tetrahydroxy-3-geranylflavone] = 10 to 80%
COc1cc(O)c(CC=C(C)C)c2c1C(=O)C[C@@H](c1ccc(O)cc1)O2 = > 80%
CC(C)=CCc1c(O)cc(O)c2c(=O)cc(-c3ccc(O)cc3)oc12 = > 80%
COc1cc(-c2oc3cc(OC(C)=O)c(OC)c(OC(C)=O)c3c(=O)c2OC)ccc1OC(C)=O [Jaceidin triacetate] = < 10%
O=c1c(O)c(-c2ccc(O[C@@H]3O[C@H](CO)[C@@H](O)[C@H](O)[C@H]3O)cc2)oc2cc(O)cc(O)c12 [Kaempferol-4′-O-beta-D-glucopyranoside] = 10 to 80%
CC(C)=CCC/C(C)=C\Cc1c(O)cc(O)c2c1O[C@H](c1ccc(O)cc1O)CC2=O = 10 to 80%
O=c1c(O)c(-c2ccc(O)cc2O)oc2cc(O)cc(O)c12 = > 80%
O=c1cc(-c2ccc(O)c(-c3c(O)cc(O)c4c(=O)cc(-c5ccc(O)cc5)oc34)c2)oc2cc(O)cc(O)c12 = 10 to 80%
CC(C)=CCc1cc(-c2coc3cc(O)cc(O)c3c2=O)cc(O)c1O = > 80%
C=C(C)[C@H](CC=C(C)C)Cc1c(O)cc(O)c2c(=O)c(O)c(-c3ccc(O)cc3O)oc12 = 10 to 80%
CC(C)=CCc1c(-c2ccc(O)cc2O)oc2c3c(cc(O)c2c1=O)OC(C)(C)C=C3 = 10 to 80%
CC(C)=CCc1c2c(c(O)c3c(=O)c(-c4ccc(O)c(O)c4)coc13)CC(C(C)(C)O)O2 (stereo not drawn) = 10 to 80%
CC(C)=CCCC1=C[C@@H](c2c(O)cc3oc(-c4ccc(O)cc4O)cc(=O)c3c2O)[C@H](C(=O)c2ccc(O)cc2O)[C@@H](c2ccc(O)cc2O)C1 = < 10%
CC(C)=CCc1cc([C@@H]2CC(=O)c3c(O)cc(O)c(CC=C(C)C)c3O2)c(O)cc1O = 10 to 80%
CC(C)=CCc1c(O)ccc(-c2coc3cc(O)cc(O)c3c2=O)c1O = > 80%
